target entity: recombinant GST-tagged MDM2 (Homo sapiens)
Sequence (Q00987 whole entry): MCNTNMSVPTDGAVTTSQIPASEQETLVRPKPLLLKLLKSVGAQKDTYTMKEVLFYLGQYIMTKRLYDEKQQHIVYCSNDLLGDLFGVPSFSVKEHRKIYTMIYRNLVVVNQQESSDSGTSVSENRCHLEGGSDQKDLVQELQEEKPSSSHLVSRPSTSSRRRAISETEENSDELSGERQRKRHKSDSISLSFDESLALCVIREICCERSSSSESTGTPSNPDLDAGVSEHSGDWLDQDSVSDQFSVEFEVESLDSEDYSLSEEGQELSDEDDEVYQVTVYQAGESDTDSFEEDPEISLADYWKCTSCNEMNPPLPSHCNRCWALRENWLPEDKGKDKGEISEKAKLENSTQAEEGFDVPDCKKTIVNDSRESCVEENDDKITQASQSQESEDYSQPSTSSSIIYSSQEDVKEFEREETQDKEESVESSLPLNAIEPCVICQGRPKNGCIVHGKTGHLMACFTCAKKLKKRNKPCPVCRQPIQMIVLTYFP
assay comment: HTRF assay of interaction between p53 peptide and GST-tagged MDM2
condition description: inhibition of GST-MDM2 (160 ng/ml) binding to biotinylated p53-peptide

{"columns": ["compound", "IC50 / nM"],
 "data": [
  ["CCOc1cc(Cl)c(S(C)(=O)=O)cc1C1=N[C@@](C)(c2ccc(Cl)cc2)[C@@](C)(c2ccc(Cl)cc2)N1C(=O)N1CCN(CCS(=O)(=O)CC)CC1", 5.2],
  ["CCC(C)Oc1cc(Cl)c(S(C)(=O)=O)cc1C1=N[C@@](C)(c2ccc(Cl)cc2)[C@@](C)(c2ccc(Cl)cc2)N1C(=O)N1CCN(CCCS(C)(=O)=O)CC1 (stereo partly drawn)", 13.9],
  ["CCOc1cc(Cl)c(S(C)(=O)=O)cc1C1=N[C@@](C)(c2ccc(Cl)cc2)[C@@](C)(c2ccc(Cl)cc2)N1C(=O)N1CCC(CCCS(C)(=O)=O)CC1", 4.6]
]}

====

// GST-tagged MDMX (Homo sapiens) pIC50 records
pIC50: −log10 of the molar value.
measurement label: pIC50

{"columns": ["molecule", "measurement label", "result value"],
 "data": [
  ["CC(C)Oc1cc(Cl)c(S(=O)(=O)N2C[C@H]3CC[C@@H](C2)O3)cc1C1=N[C@@](C)(c2ccc(Cl)cc2)[C@@](C)(c2ccc(Cl)cc2)N1C(=O)N1CCC(CC(N)=O)CC1 [Example 61]", "pIC50", 6.57],
  ["CCOc1cc(Cl)c(S(C)(=O)=O)cc1C1=N[C@@](C)(c2ccc(Cl)cc2)[C@@](C)(c2ccc(Cl)cc2)N1C(=O)N1CCN(C[C@H](O)CO)CC1 [Example 3]", "pIC50", 5.94],
  ["CCOc1cc(Cl)c(S(C)(=O)=O)cc1C1=N[C@@](C)(c2ccc(Cl)cc2)[C@@](C)(c2ccc(Cl)cc2)N1C(=O)N1CCN(CC[C@H](O)CO)C(=O)C1 [Example 4]", "pIC50", 5.76]
]}

====

IC50 overview
target entity: GST-tagged MDMX (Homo sapiens)
Sequence (O15151 1-490): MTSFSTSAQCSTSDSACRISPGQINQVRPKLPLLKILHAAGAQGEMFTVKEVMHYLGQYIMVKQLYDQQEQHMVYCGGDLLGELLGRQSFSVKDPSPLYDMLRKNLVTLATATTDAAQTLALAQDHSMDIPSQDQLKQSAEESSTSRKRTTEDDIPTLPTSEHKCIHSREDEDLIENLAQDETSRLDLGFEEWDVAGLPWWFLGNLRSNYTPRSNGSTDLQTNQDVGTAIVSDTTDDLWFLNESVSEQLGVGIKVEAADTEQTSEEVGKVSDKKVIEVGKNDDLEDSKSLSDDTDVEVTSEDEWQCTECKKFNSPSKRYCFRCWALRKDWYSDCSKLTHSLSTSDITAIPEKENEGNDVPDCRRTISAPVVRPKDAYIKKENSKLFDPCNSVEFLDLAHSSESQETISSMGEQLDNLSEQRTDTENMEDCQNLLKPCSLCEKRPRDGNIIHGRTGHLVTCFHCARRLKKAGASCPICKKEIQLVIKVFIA

{"columns": ["compound", "target entity", "unit of measure", "IC50"],
 "data": [
  ["CCOc1cc(Cl)c(S(C)(=O)=O)cc1C1=N[C@@](C)(c2ccc(Cl)cc2)[C@@](C)(c2ccc(Cl)cc2)N1C(=O)N1CCC(NC(=O)NC2CCCC2)CC1", "GST-tagged MDMX (Homo sapiens)", "nM", 1590],
  ["CCOc1cc(Cl)c(S(C)(=O)=O)cc1C1=N[C@@](C)(c2ccc(Cl)cc2)[C@@](C)(c2ccc(Cl)cc2)N1C(=O)N1CCN(CC(=O)NC)CC1", "GST-tagged MDMX (Homo sapiens)", "nM", 1010],
  ["CCOc1cc(Cl)c(S(=O)(=O)N2CCOCC2)cc1C1=N[C@@](C)(c2ccc(Cl)cc2)[C@@](C)(c2ccc(Cl)cc2)N1C(=O)N1CCN(CCCS(C)(=O)=O)CC1", "GST-tagged MDMX (Homo sapiens)", "nM", 1640],
  ["CCOc1cc(Cl)c(S(C)(=O)=O)cc1C1=N[C@@](C)(c2ccc(Cl)cc2)[C@@](C)(c2ccc(Cl)cc2)N1C(=O)N1CCC(CC(N)=O)CC1 (racemic) [Example 5]", "GST-tagged MDMX (Homo sapiens)", "nM", 3660],
  ["CCOc1cc(Cl)c(S(C)(=O)=O)cc1C1=N[C@@](C)(c2ccc(Cl)cc2)[C@@](C)(c2ccc(Cl)cc2)N1C(=O)N1CCC(NC(N)=O)CC1", "GST-tagged MDMX (Homo sapiens)", "nM", 1460],
  ["CC(C)Oc1cc(Cl)c(S(=O)(=O)NC(C)(C)C)cc1C1=N[C@@](C)(c2ccc(Cl)cc2)[C@@](C)(c2ccc(Cl)cc2)N1C(=O)N1CCC(CC(N)=O)CC1", "GST-tagged MDMX (Homo sapiens)", "nM", 570],
  ["CCOc1cc(Cl)c(S(C)(=O)=O)cc1C1=N[C@@](C)(c2ccc(Cl)cc2)[C@@](C)(c2ccc(Cl)cc2)N1C(=O)N1CCN(CCC(N)=O)CC1", "GST-tagged MDMX (Homo sapiens)", "nM", 2810],
  ["CCOc1cc(Cl)c(S(C)(=O)=O)cc1C1=N[C@@](C)(c2ccc(Cl)cc2)[C@@](C)(c2ccc(Cl)cc2)N1C(=O)N1CCN(CCCS(=O)(=O)CC)CC1", "GST-tagged MDMX (Homo sapiens)", "nM", 1460],
  ["CCOc1cc(Cl)c(S(C)(=O)=O)cc1C1=N[C@@](C)(c2ccc(Cl)cc2)[C@@](C)(c2ccc(Cl)cc2)N1C(=O)N1CCC(NS(C)(=O)=O)CC1", "GST-tagged MDMX (Homo sapiens)", "nM", 1120],
  ["C[C@@]1(c2ccc(Cl)cc2)N=C(c2cc(S(C)(=O)=O)c(Cl)cc2OCCF)N(C(=O)N2CCN(CCCS(C)(=O)=O)CC2)[C@]1(C)c1ccc(Cl)cc1", "GST-tagged MDMX (Homo sapiens)", "nM", 1380],
  ["CCOc1cc(Cl)c(S(C)(=O)=O)cc1C1=N[C@@](C)(c2ccc(Cl)cc2)[C@@](C)(c2ccc(Cl)cc2)N1C(=O)N1CCN(CCS(C)(=O)=O)CC1", "GST-tagged MDMX (Homo sapiens)", "nM", 1430]
]}

====

pIC50: −log10 of the molar value.
// GST-tagged MDMX (Homo sapiens, UniProt O15151) pIC50 records

{"columns": ["molecule", "pIC50"],
 "data": [
  ["CCOc1cc(Cl)c(S(C)(=O)=O)cc1C1=N[C@@](C)(c2ccc(Cl)cc2)[C@@](C)(c2ccc(Cl)cc2)N1C(=O)N1CCN(C2CCS(=O)(=O)C2)CC1 (some centres unmarked)", 5.44],
  ["CCOc1cc(Cl)c(S(C)(=O)=O)cc1C1=N[C@@](C)(c2ccc(Cl)cc2)[C@@](C)(c2ccc(Cl)cc2)N1C(=O)N1CCC(NC(C)=O)CC1", 5.90],
  ["CCOc1cc(Cl)c(S(=O)(=O)NC(C)(C)C)cc1C1=N[C@@](C)(c2ccc(Cl)cc2)[C@@](C)(c2ccc(Cl)cc2)N1C(=O)N1CCC(N2CCNC(=O)CC2)CC1", 5.95],
  ["CCOc1cc(Cl)c(S(C)(=O)=O)cc1C1=N[C@@](C)(c2ccc(Cl)cc2)[C@@](C)(c2ccc(Cl)cc2)N1C(=O)N1CCC2(CCNCC2)CC1", 5.42],
  ["CCOc1cc(Cl)c(S(=O)(=O)NC(C)(C)C)cc1C1=N[C@@](C)(c2ccc(Cl)cc2)[C@@](C)(c2ccc(Cl)cc2)N1C(=O)N1CCN(CCC(N)=O)CC1", 5.84],
  ["CCOc1cc(Cl)c(S(C)(=O)=O)cc1C1=N[C@@](C)(c2ccc(Cl)cc2)[C@@](C)(c2ccc(Cl)cc2)N1C(=O)N1CCC(N)CC1", 5.97],
  ["CCOc1cc(Cl)c(S(C)(=O)=O)cc1C1=N[C@@](C)(c2ccc(Cl)cc2)[C@@](C)(c2ccc(Cl)cc2)N1C(=O)N1CCC(NC(=O)NC(C)C)CC1", 5.90],
  ["CC(C)Oc1cc(Cl)c(S(=O)(=O)N2CCCC2)cc1C1=N[C@@](C)(c2ccc(Cl)cc2)[C@@](C)(c2ccc(Cl)cc2)N1C(=O)N1CCC(CC(N)=O)CC1", 6.71],
  ["CCOCCN(CCOCC)C(=O)CN1CCN(C(=O)N2C(c3cc(S(C)(=O)=O)c(Cl)cc3OCC)=N[C@@](C)(c3ccc(Cl)cc3)[C@@]2(C)c2ccc(Cl)cc2)CC1", 6.07],
  ["CCOCCN(CCOCC)C(=O)CC1CCN(C(=O)N2C(c3cc(S(C)(=O)=O)c(Cl)cc3OCC)=N[C@@](C)(c3ccc(Cl)cc3)[C@@]2(C)c2ccc(Cl)cc2)CC1", 5.82],
  ["C[C@@]1(c2ccc(Cl)cc2)N=C(c2cc(S(C)(=O)=O)c(Cl)cc2OCC2CC2)N(C(=O)N2CCN(CCCS(C)(=O)=O)CC2)[C@]1(C)c1ccc(Cl)cc1", 5.18]
]}
